Value source: ChEMBL document CHEMBL4041481

Experiment: Inhibition of Staphylococcus aureus DNA gyrase using relaxed pBR322 DNA as substrate after 3 hrs by agarose electrophoresis
Measured Attribute: IC50

Exercise: Recorded IC50 for CO[C@@H]1[C@@H](OC(N)=O)[C@@H](O)[C@H](Oc2ccc3c(O)c(NC(=O)c4ccc(O)c(CC=C(C)C)c4)c(=O)oc3c2C)OC1(C)C , please?
Key: 10 nM

---

Here, each record is paired with measured Activity data.
Biological target: DNA gyrase subunit B (Escherichia coli) (UniProt P0AES6)
Experiment: Inhibition of Escherichia coli DNA ATCC 25922 gyrase B assessed as residual activity at 100 uM using relaxed pNO1 DNA as substrate incubated for 30 mins and measured by sybrGOLD staining based fluorescence assay
Details: Escherichia coli ATCC 25922
// note: answer is a bare numeric in %

>  <Molecular String>
Nc1ncc(C(=O)N2CCN(C(=O)c3c[nH]c4ccccc34)CC2)[nH]1

>  <Observed Value>
100

$$$$
>  <Molecular String>
C=CCN(C(=O)c1cc(Br)c(Br)[nH]1)C1CCN(C(=O)CCC(=O)O)CC1

>  <Observed Value>
29

$$$$
>  <Molecular String>
O=C(O)CCNC(=O)[C@H]1CC[C@H](CNC(=O)c2cc(Br)c(Br)[nH]2)CC1

>  <Observed Value>
100

$$$$

Exercise: Recorded Activity for COC(=O)CCNC(=O)[C@H]1CC[C@H](NC(=O)c2cc(Br)c(Br)[nH]2)CC1 , please?
Key: 100

Exercise: Okay, and Nc1ncc(C(=O)N2CCN(Cc3ccc[nH]3)CC2)[nH]1 ?
Key: 100

---

Target: DNA gyrase subunit B (Escherichia coli, UniProt P0AES6)
Experiment: Inhibition of Escherichia coli ATCC 25922 DNA gyrase B using relaxed pNO1 DNA as substrate incubated for 30 mins and measured by sybrGOLD staining based fluorescence assay
Assign labels as follows, please: Met for IC50 below 50 µM; Not met for IC50 equal to or exceeding 50 µM.

Exercise: Threshold test, IC50 < 50 µM: COC(=O)c1ccc(C(=O)N2CCC(NC(=O)c3cc(Br)c(Br)[nH]3)CC2)cc1
Key: Not met

Exercise: Okay, and O=C(O)CC(=O)N1CCC(NC(=O)c2cc(Br)c(Br)[nH]2)CC1 ?
Key: Met

Exercise: Okay, and COC(=O)CCCC(=O)N1CCC(NC(=O)c2cc(Br)c(Br)[nH]2)CC1 ?
Key: Met

Exercise: Okay, and O=C(NC1CCN(C(=O)c2ccc(O)c(O)c2)CC1)c1cc2ccccc2[nH]1 ?
Key: Not met

---

Molecular target: DNA gyrase subunit B (Escherichia coli, UniProt P0AES6)
Assay: Binding affinity to Escherichia coli ATCC 25922 DNA gyrase B by surface plasmon resonance assay
Measured Attribute: pKd
// pKd here means minus log10 of the molar concentration (mol/L)

// below: answered molecules
>  <Molecular String>
O=C(O)CCC(=O)N1CCC(N(Cc2ccccc2)C(=O)c2cc(Br)c(Br)[nH]2)CC1

>  <pKd>
4.95

$$$$
>  <Molecular String>
O=C(O)CCC(=O)N1CCC(NC(=O)c2cc(Br)c(Br)[nH]2)CC1

>  <pKd>
4.90

$$$$
>  <Molecular String>
O=C(O)c1ccc(C(=O)N2CCC(NC(=O)c3cc(Br)c(Br)[nH]3)CC2)cc1

>  <pKd>
3.59

$$$$

Exercise: Recorded pKd for O=C(O)c1cccc(CN2CCC(NC(=O)c3cc(Br)c(Br)[nH]3)CC2)c1 , please?
Key: 4.95

---

Target: DNA gyrase subunit B (Staphylococcus aureus, UniProt P0A0K8)
Sequence (P0A0K8 whole entry): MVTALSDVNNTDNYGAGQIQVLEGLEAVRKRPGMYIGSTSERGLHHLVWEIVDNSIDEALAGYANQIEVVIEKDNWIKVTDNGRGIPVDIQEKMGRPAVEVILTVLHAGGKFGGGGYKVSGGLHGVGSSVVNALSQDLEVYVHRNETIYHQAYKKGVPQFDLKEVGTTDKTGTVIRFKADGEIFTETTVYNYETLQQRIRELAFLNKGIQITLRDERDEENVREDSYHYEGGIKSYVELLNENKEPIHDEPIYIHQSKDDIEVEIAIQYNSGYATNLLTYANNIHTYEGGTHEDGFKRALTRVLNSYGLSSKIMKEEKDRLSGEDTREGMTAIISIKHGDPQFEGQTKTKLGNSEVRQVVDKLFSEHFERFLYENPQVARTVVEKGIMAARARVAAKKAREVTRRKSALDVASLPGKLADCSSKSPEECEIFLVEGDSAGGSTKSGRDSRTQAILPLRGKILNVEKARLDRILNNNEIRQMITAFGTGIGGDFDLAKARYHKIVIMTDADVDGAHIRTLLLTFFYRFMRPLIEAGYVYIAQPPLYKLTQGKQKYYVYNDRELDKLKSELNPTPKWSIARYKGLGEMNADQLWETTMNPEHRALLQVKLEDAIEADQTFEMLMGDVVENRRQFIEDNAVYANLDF
Assay: Inhibition of Staphylococcus aureus DNA gyrase B using relaxed pNO1 DNA as substrate incubated for 30 mins and measured by sybrGOLD staining based fluorescence assay
Details: read-out: IC50
Measured Attribute: pIC50
// pIC50 here means minus log10 of the molar concentration (mol/L)

Exercise: Recall the recorded pIC50 for O=C(O)CCC(=O)N1CCC(NC(=O)c2cc(Br)c(Br)[nH]2)CC1 with DNA gyrase subunit B (Staphylococcus aureus, UniProt P0A0K8) and state it.
Key: 4.03

---

Target: DNA gyrase subunit B (Escherichia coli, UniProt P0AES6)
Test: Inhibition of Escherichia coli ATCC 25922 DNA gyrase B using relaxed pNO1 DNA as substrate incubated for 30 mins and measured by sybrGOLD staining based fluorescence assay
Assign labels as follows, please: condition met for IC50 below 20 µM; condition not met for IC50 equal to or exceeding 20 µM.

As a guide, the following entries are already answered.
>  <Molecular String>
CCOC(=O)C(=O)N1CCC(NC(=O)c2cc(Br)c(Br)[nH]2)CC1

>  <Category Label>
condition met

$$$$
>  <Molecular String>
O=C(O)CCC(=O)N1CCC(NC(=O)c2cc(Br)c(Br)[nH]2)CC1

>  <Category Label>
condition met

$$$$
>  <Molecular String>
O=C(O)C(=O)N1CCC(NC(=O)c2cc(Br)c(Br)[nH]2)CC1

>  <Category Label>
condition not met

$$$$
>  <Molecular String>
O=C(O)c1ccc(CN2CCC(NC(=O)c3cc(Br)c(Br)[nH]3)CC2)cc1

>  <Category Label>
condition not met

$$$$
>  <Molecular String>
O=C(O)CCNC(=O)[C@H]1CC[C@@H](NC(=O)c2cc(Br)c(Br)[nH]2)CC1

>  <Category Label>
condition not met

$$$$
>  <Molecular String>
O=C(O)CC(=O)N1CCN(C(=O)c2cc(Br)c(Br)[nH]2)CC1

>  <Category Label>
condition not met

$$$$
>  <Molecular String>
O=C(O)CC(=O)N1CCC(NC(=O)c2cc3ccccc3[nH]2)CC1

>  <Category Label>
condition not met

$$$$
>  <Molecular String>
O=C(NC1CCN(C(=O)c2ccc(O)c(O)c2)CC1)c1cc(Br)c(Br)[nH]1

>  <Category Label>
condition met

$$$$
>  <Molecular String>
O=C(O)c1ccc(C(=O)N2CCC(NC(=O)c3cc(Br)c(Br)[nH]3)CC2)cc1

>  <Category Label>
condition met

$$$$
>  <Molecular String>
CC(C)(C)OC(=O)N1CCC(NC(=O)c2cc(Br)c(Br)[nH]2)CC1

>  <Category Label>
condition not met

$$$$

Exercise: Threshold test, IC50 < 20 µM: O=C(O)CCCC(=O)N1CCC(NC(=O)c2cc(Br)c(Br)[nH]2)CC1
Key: condition met

Exercise: Okay, and Cc1[nH]c(C(=O)NC2CCN(C(=O)CCC(=O)O)CC2)c(Cl)c1Cl ?
Key: condition met

Exercise: Okay, and O=C(NC1CCN(C(=O)c2ccc(O)c(O)c2)CC1)c1cc(Cl)c(Cl)[nH]1 ?
Key: condition met

Exercise: Okay, and O=C(O)CNC(=O)[C@H]1CC[C@H](NC(=O)c2cc(Br)c(Br)[nH]2)CC1 ?
Key: condition met

Exercise: Okay, and COC(=O)CC(=O)N1CCC(NC(=O)c2cc(Br)c(Br)[nH]2)CC1 ?
Key: condition met

Exercise: Okay, and COC(=O)CCC(=O)N1CCC(NC(=O)c2cc(Br)c(Br)[nH]2)CC1 ?
Key: condition not met

Exercise: Okay, and O=C(O)c1cccc(CN2CCC(NC(=O)c3cc(Br)c(Br)[nH]3)CC2)c1 ?
Key: condition not met

---

Target: DNA gyrase subunit B (Staphylococcus aureus)
Experiment: Inhibition of Staphylococcus aureus DNA gyrase B assessed as residual activity at 100 uM using relaxed pNO1 DNA as substrate incubated for 30 mins and measured by sybrGOLD staining based fluorescence assay
Measured Attribute: Activity (%)
// note: answer is a bare numeric in %

>  <Molecular String>
O=C(O)c1cccc(CN2CCC(NC(=O)c3cc(Br)c(Br)[nH]3)CC2)c1

>  <Activity [%]>
100

$$$$

Query molecule follows.
Exercise: Recorded Activity for O=C(O)CCCC(=O)N1CCC(NC(=O)c2cc(Br)c(Br)[nH]2)CC1 , please?
Key: 71

---

Target: DNA gyrase subunit B (Staphylococcus aureus) (UniProt P0A0K8)
Assay: Inhibition of Staphylococcus aureus DNA gyrase B assessed as residual activity at 100 uM using relaxed pNO1 DNA as substrate incubated for 30 mins and measured by sybrGOLD staining based fluorescence assay
Here, each record is paired with measured Activity data.
// note: answer is a bare numeric in %

// below: answered compounds
>  <Molecular String>
CCOC(=O)C(=O)N1CCC(NC(=O)c2cc(Br)c(Br)[nH]2)CC1

>  <Measured Attribute>
Activity

>  <Observed Value>
74

$$$$
>  <Molecular String>
O=C(O)c1ccc(C(=O)N2CCC(NC(=O)c3cc(Br)c(Br)[nH]3)CC2)cc1

>  <Measured Attribute>
Activity

>  <Observed Value>
84

$$$$
>  <Molecular String>
O=C(O)CC(=O)N1CCC(NC(=O)c2cc(Br)c(Br)[nH]2)CC1

>  <Measured Attribute>
Activity

>  <Observed Value>
80

$$$$

Query compound follows.
Exercise: Recorded Activity for O=C(O)c1ccc(CN2CCC(NC(=O)c3cc(Br)c(Br)[nH]3)CC2)cc1 , please?
Key: 100
